- assay_summary: Thermodynamic aqueous solubility of the compound in simulated gastric fluid at pH 1.2 after overnight incubation
- Type: physicochemical
- condition_parameters: read-out: Therm_solubility
Reported values of solubility thermodynamic for individual entries
readout_name: solubility thermodynamic

smiles_str=CCOP(=O)(OCC)C(=Cc1cc(C(C)(C)C)c(O)c(C(C)(C)C)c1)P(=O)(OCC)OCC result="200 µg/mL"
smiles_str=CCOP(=O)(OCC)C(=Cc1c2ccccc2cc2ccccc12)P(=O)(OCC)OCC result="> 1500 µg/mL"
smiles_str=CCOP(=O)(OCC)C(=Cc1ccccc1)P(=O)(OCC)OCC result="> 1500 µg/mL"

###

- assay_summary: AUC (0 to infinity) in BALB/c mouse plasma at 1 mg/kg, iv up to 24 hrs by LC-MS/MS analysis
- Type: ADME, organism-based
- Design: dose 1 mg/kg, route intravenous, time infinity
readout_name: AUC(0-inf) (ng·h/mL)

smiles_str=CCOP(=O)(OCC)C(=Cc1ccccc1)P(=O)(OCC)OCC number=549
